# Experiment: Ex vivo biodistribution in Daudi xenograft-bearing mice
# Measurement Parameters: male, NOD.Cg-Rag1tm1Mom Il2rgtm1Wjl/SzJ (NRG), mouse, fat, iv, total radioactivity, Fat uptake, 1 h p.i. blocked with LY2510924, mean
Where a SMILES comes first, the peptide text is derived from it. Side-chain parts run from the residue outwards. [ ]: non-standard residue; d: D form. The star is where a group is joined. DOTA = O=C(O)CN1CCN(CC(=O)O)CCN(CC(=O)*)CCN(CC(=O)O)CC1; 2Nal = N[C@@H](Cc1ccc2ccccc2c1)C(=O)O; dNMeOrn = CN[C@H](CCCN)C(=O)O; 4Amb = NCc1ccc(C(=O)O)cc1
Quantity Kind: tissue uptake at 1 h (%ID/g)
API: value field is a number in %ID/g; no unit string.

Input line: Given the entry CN1C(=O)[C@@H](Cc2ccc(O)cc2)NC(=O)CNC(=O)[C@H](Cc2ccc3ccccc3c2)NC(=O)[C@H](CCCNC(=N)N)NC(=O)[C@H]1CCCNC(=O)c1ccc(CNC(=O)CN2CCN(CC(=O)O)CCN(CC(=O)O)CCN(CC(=O)O)CC2)cc1 [[68Ga]Ga-Pentixafor, metal not drawn] (cyclo([dY][dNMeOrn]([4Amb-DOTA])R[2Nal]G)) , report its measured tissue uptake at 1 h.
Output line: 0.18
